Test system: TK-10 renal
Experiment: NCI tumour cell line growth inhibition, 48 h
Test Readout: TGI

Problem: Bench note: what TGI did COc1cc(C2C3=C(COC3=O)Nc3c2ccc2c3CCCC2)cc2c1OCO2 (stereo not drawn) show?
Solution: > 94.3 µM

Problem: For the compound "COc1cc(N2CCN(C(C)C)CC2)ccc1Nc1nc(Nc2cccc(F)c2C(=O)O)c2cc[nH]c2n1" , what TGI is on record?
Solution: > 25 µM

Problem: Record request: TGI value, item "O=C(Cc1nc2ncccc2[nH]c1=O)c1c[nH]c2ccccc12"
Solution: 30.4 µM

----------
Provide the reported TGI of each item.
Test system: NCI-H460 lung
Experiment: NCI tumour cell line growth inhibition, 48 h

Problem: Param item = C=C1C2CC(OC(C)=O)C3(C)C(c4ccoc4)OC(=O)[C@@H](O)[C@]13OC1C[C@H](OC(C)=O)C(C)(C)[C@H](CC(=O)OC)[C@]12C (stereo partly specified) ; retrieve measured TGI.
Solution: > 100 µM

Problem: TGI lookup needed for CN(C)CC(C(=O)Cc1ccccc1)c1ccccc1 (stereo unspecified) , thanks.
Solution: 14.8 µM

Problem: TGI lookup needed for "CC(C)(C)OC(=O)c1ccc(NCC2=CC(=O)C=CC2=O)cc1" , thanks.
Solution: > 59.5 µM

Problem: What does the data say about its TGI? Entry: "O=c1c2cc(Cl)ccc2[nH]c2cc(O)cc(O)c12"
Solution: > 10 µM

Problem: Recorded TGI for "N#Cc1nc(-c2ccccn2)oc1N" , please?
Solution: > 100 µM

Problem: Find the recorded TGI belonging to "O=C(NC(Nc1ccc(F)cc1)(C(F)(F)F)C(F)(F)F)C(C(F)(F)F)C(F)(F)F" and report it.
Solution: > 100 µM

Problem: Which TGI value belongs to "C(=N\OCCc1ccccc1)/c1cccnc1" ?
Solution: > 100 µM

Problem: For the compound "N=C(N)c1ccc(NCCOCCNc2ccc(C(=N)N)cc2)cc1" , what TGI is on record?
Solution: > 100 µM

Problem: Entry "CCOC(=O)c1oc2ccc([N+](=O)[O-])c3c2c1CCC3" : reported TGI = ?
Solution: > 100 µM

Problem: Report TGI for "COc1cc(N2CCN(C(C)C)CC2)ccc1Nc1nc(Nc2cccc(F)c2C(=O)O)c2cc[nH]c2n1" please.
Solution: > 25 µM

Problem: Which measured TGI value corresponds to "Cc1ncc([N+](=O)[O-])n1CCNCCCn1ccnc1[N+](=O)[O-]" ?
Solution: > 100 µM
